TARGET ENTITY: human BCRP (Homo sapiens)
EXPERIMENT SUMMARY: in vitro
MEASURED QUANTITY: activity at 3 h, 5 μmol/L (%)
Use % as the unit, but write only the number.

# return activity at 3 h, 5 μmol/L for `C=CC(=O)N1C[C@H](n2c(C#CC3CC3)c(C(=O)N[C@H](C)c3ccccc3)c3c(N)ncnc32)C[C@@H]1C` , test system: human BCRP (Homo sapiens)
10

====

EXPERIMENT SUMMARY: brain penetrability after single oral administration
Type: in vivo, male nude mice
CONDITION DESCRIPTION: male, nude, mouse, brain; 0.5 hr after single oral 50 mg/kg; read-out: Brain Concentration
MEASURED QUANTITY: concentration at 0.5 h (ng/g)
Use ng/g as the unit, but write only the number.

For the compound C=CC(=O)N1C[C@H](n2c(C#CC3CC3)c(C(=O)N[C@H](C)c3ccccc3)c3c(N)ncnc32)C[C@@H]1C [Compound (1)] , report concentration at 0.5 h.
3590

====

TARGET ENTITY: human BCRP (Homo sapiens, UniProt Q9UNQ0)
Sequence (Q9UNQ0 whole entry): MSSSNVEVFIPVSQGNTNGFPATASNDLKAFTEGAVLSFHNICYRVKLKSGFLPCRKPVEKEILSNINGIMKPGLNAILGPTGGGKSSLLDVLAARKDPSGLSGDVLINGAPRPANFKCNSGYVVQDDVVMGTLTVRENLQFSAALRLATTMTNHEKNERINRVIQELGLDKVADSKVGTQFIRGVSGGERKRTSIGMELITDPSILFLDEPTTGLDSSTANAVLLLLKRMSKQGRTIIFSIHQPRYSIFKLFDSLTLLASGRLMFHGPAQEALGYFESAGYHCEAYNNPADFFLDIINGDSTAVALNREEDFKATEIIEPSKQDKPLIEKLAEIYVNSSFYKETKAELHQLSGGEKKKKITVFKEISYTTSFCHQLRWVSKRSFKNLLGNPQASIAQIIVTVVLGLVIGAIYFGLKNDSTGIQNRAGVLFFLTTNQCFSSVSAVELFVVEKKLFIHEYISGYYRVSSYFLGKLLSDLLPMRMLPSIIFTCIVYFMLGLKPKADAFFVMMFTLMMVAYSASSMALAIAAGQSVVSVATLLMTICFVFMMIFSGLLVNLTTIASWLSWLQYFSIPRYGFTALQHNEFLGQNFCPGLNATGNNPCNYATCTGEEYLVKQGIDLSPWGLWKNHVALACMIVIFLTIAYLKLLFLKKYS
EXPERIMENT SUMMARY: in vitro
MEASURED QUANTITY: activity at 3 h, 0.01 μmol/L

# return activity at 3 h, 0.01 μmol/L for `C=CC(=O)N1C[C@H](n2c(C#CC3CC3)c(C(=O)N[C@H](C)c3ccccc3)c3c(N)ncnc32)C[C@@H]1C` , test system: human BCRP (Homo sapiens, UniProt Q9UNQ0)
114%

====

EXPERIMENT SUMMARY: brain penetrability after single oral administration
Assay type: in vivo, male nude mice
CONDITION DESCRIPTION: male, nude, mouse, plasma; 1 hr after single oral 50 mg/kg; read-out: Plasma Concentration
MEASURED QUANTITY: concentration at 1 h (ng/mL)
Use ng/mL as the unit, but write only the number.

For the compound C=CC(=O)N1C[C@H](n2c(C#CC3CC3)c(C(=O)N[C@H](C)c3ccccc3)c3c(N)ncnc32)C[C@@H]1C [Compound (1)] , report concentration at 1 h.
6170

====

TARGET ENTITY: human P-gp (Homo sapiens, UniProt P08183)
Construct: expressed in transfected cells; host or cells: LLC-PK1 (porcine kidney) cells expressing human P-gp; mock/LLC-PK1 as control
Sequence (P08183 whole entry): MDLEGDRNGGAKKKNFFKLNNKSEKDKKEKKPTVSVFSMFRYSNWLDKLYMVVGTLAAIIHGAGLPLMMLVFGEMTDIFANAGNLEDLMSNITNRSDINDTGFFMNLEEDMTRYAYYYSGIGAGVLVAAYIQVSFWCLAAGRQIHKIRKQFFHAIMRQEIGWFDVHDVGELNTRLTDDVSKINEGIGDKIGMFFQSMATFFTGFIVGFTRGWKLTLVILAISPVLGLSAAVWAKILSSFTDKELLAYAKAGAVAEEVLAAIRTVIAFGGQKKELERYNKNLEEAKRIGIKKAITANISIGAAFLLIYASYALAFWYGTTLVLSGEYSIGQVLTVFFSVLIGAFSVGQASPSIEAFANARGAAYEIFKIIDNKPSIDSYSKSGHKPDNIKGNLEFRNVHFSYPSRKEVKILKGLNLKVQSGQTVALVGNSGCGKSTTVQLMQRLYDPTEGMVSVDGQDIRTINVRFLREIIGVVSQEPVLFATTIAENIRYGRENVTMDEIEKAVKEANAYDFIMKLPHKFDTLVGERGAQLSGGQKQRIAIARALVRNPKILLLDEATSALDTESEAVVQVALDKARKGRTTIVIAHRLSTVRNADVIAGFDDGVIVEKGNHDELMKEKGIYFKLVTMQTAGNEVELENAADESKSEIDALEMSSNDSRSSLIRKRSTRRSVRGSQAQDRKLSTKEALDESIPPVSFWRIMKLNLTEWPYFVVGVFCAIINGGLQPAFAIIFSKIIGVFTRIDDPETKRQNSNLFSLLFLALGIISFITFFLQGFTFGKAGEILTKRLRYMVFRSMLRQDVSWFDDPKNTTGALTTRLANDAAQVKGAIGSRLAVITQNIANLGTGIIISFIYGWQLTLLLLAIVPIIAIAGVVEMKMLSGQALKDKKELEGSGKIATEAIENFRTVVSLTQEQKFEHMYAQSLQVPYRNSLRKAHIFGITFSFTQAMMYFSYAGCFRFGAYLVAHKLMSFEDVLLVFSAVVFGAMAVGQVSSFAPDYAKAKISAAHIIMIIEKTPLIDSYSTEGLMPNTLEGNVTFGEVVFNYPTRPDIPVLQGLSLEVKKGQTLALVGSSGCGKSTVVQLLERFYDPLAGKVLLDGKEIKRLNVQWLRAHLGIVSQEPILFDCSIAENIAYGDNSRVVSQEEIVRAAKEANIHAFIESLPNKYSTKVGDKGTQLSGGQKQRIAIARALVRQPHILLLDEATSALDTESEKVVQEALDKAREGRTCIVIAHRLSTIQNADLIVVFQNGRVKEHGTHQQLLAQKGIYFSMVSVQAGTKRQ
EXPERIMENT SUMMARY: inhibitory effect on human P-gp, bidirectional transport of [^3H]digoxin
Format: in vitro ADME
CONDITION DESCRIPTION: human
MEASURED QUANTITY: activity at 3 h, 0.01 μmol/L

For the compound C=CC(=O)N1C[C@H](n2c(C#CC3CC3)c(C(=O)N[C@H](C)c3ccccc3)c3c(N)ncnc32)C[C@@H]1C [Compound (1)] , report activity at 3 h, 0.01 μmol/L.
112%

====

EXPERIMENT SUMMARY: plasma protein binding, equilibrium dialysis
Format: in vitro ADME
CONDITION DESCRIPTION: monkey, monkeys, 0.2, 2, and 20 μmol/L
MEASURED QUANTITY: fraction unbound

For the molecule C=CC(=O)N1C[C@H](n2c(C#CC3CC3)c(C(=O)N[C@H](C)c3ccccc3)c3c(N)ncnc32)C[C@@H]1C [Compound (1)] , report fraction unbound.
0.015 to 0.02

====

EXPERIMENT SUMMARY: brain penetrability after single oral administration
Format: in vivo, male nude mice
CONDITION DESCRIPTION: male, nude, mouse, brain; 1 hr after single oral 50 mg/kg; read-out: Brain Concentration
MEASURED QUANTITY: concentration at 1 h (ng/g)
Use ng/g as the unit, but write only the number.

For the compound `C=CC(=O)N1C[C@H](n2c(C#CC3CC3)c(C(=O)N[C@H](C)c3ccccc3)c3c(N)ncnc32)C[C@@H]1C` , report concentration at 1 h.
1290
